Reference source: ChEMBL document CHEMBL4219039

test system: HeLa; test: Antiproliferative activity against human HeLa cells assessed as reduction in colony formation at 150 uM incubated for 24 hrs by crystal violet staining based assay; type: cell-based
endpoint: Activity

Cc1ncsc1-c1ccc(CNC(=O)[C@@H]2C[C@H](O)CN2C(=O)[C@@H](NC(=O)C2(C#N)CC2)C(C)(C)C)cc1
Non-Toxic
Cc1ncsc1-c1ccc(CNC(=O)[C@@H]2C[C@@H](O)CN2C(=O)[C@@H](NC(=O)C2(C#N)CC2)C(C)(C)C)cc1
Non-Toxic
Cc1ncsc1-c1ccc(CNC(=O)[C@@H]2C[C@@H](O)CN2C(=O)[C@@H](NC(=O)C2(F)CC2)C(C)(C)C)cc1
Toxic
Cc1ncsc1-c1ccc(CNC(=O)[C@@H]2C[C@H](O)CN2C(=O)[C@@H](NC(=O)C2(F)CC2)C(C)(C)C)cc1
Toxic
